Hi there, I'd appreciate the recorded % 120 min residual percentage for every entry that follows.
experiment: Human plasma stability; format: in vitro ADME; details: test concentration 2 μM, 120 min
Numbers only; they are read as %.

Problem: Identify measured % 120 min residual percentage corresponding to CC(C)[N+](C)(CCOC(=O)C1c2ccccc2Oc2ccccc21)C(C)C [Propantheline]
Solution: 0.0

Problem: Item CC(C)OC(=O)C(C)NP(=O)(OCc1ccccc1)OCC1OC(n2ccc(=O)[nH]c2=O)C(C)(F)C1O (mixture of isomers) [Compound 01] : provide % 120 min residual percentage
Solution: 74.9

Problem: Note % 120 min residual percentage for the compound shown: Cc1ccccc1COP(=O)(N[C@@H](C)C(=O)OC(C)C)OC[C@H]1O[C@@H](n2ccc(=O)[nH]c2=O)[C@](C)(F)[C@@H]1O (single isomer, unassigned) [Unresolved enantiomer 02 of patent compounds in 2013]
Solution: 58.8

Problem: Input CC(C)OC(=O)[C@H](C)NP(=O)(OC[C@H]1O[C@@H](n2ccc(=O)[nH]c2=O)[C@](C)(F)[C@@H]1O)Oc1ccccc1 (stereo partly shown) [Patent compound 06 in 2008] , output reported % 120 min residual percentage.
Solution: 65.3

---

Assignment: determine reported % 30 min residual percentage for the given compounds.
test: Human plasma stability; type: in vitro ADME; details: test concentration 2 μM, 30 min
Form entry: value (%) — number only.

Problem: Give the reported value of % 30 min residual percentage for this record: CC(C)[N+](C)(CCOC(=O)C1c2ccccc2Oc2ccccc21)C(C)C [Propantheline]
Solution: 14.3

Problem: Return % 30 min residual percentage (reported value) for this compound: CC(C)OC(=O)[C@H](C)NP(=O)(OC[C@H]1O[C@@H](n2ccc(=O)[nH]c2=O)[C@](C)(F)[C@@H]1O)Oc1ccccc1 (stereo partly shown) [Patent compound 06 in 2008]
Solution: 70.9

Problem: Look up and report measured % 30 min residual percentage for this entry: Cc1ccccc1COP(=O)(N[C@@H](C)C(=O)OC(C)C)OC[C@H]1O[C@@H](n2ccc(=O)[nH]c2=O)[C@](C)(F)[C@@H]1O (single isomer, unassigned) [Unresolved enantiomer 02 of patent compounds in 2013]
Solution: 69.5

Problem: Dear colleague, please send me the reported % 30 min residual percentage for CC(C)OC(=O)C(C)NP(=O)(OCc1ccccc1)OCC1OC(n2ccc(=O)[nH]c2=O)C(C)(F)C1O (mixture of isomers) [Compound 01] when you can.
Solution: 81.7

---

assay: Human plasma stability; assay type: in vitro ADME; conditions: test concentration 2 μM, 10 min
Hi there, I'd appreciate the recorded % 10 min residual percentage for every entry that follows.

Problem: Please supply the value of reported % 10 min residual percentage for the item CC(C)OC(=O)C(C)NP(=O)(OCc1ccccc1)OCC1OC(n2ccc(=O)[nH]c2=O)C(C)(F)C1O (mixture of isomers)
Solution: 98.9%

Problem: Determine from records and report % 10 min residual percentage for CC(C)[N+](C)(CCOC(=O)C1c2ccccc2Oc2ccccc21)C(C)C
Solution: 53.3%

Problem: Return % 10 min residual percentage for the following molecule: Cc1ccccc1COP(=O)(N[C@@H](C)C(=O)OC(C)C)OC[C@H]1O[C@@H](n2ccc(=O)[nH]c2=O)[C@](C)(F)[C@@H]1O (single isomer, unassigned) [Unresolved enantiomer 02 of patent compounds in 2013]
Solution: 73.3%

Problem: Find the measured % 10 min residual percentage of CC(C)OC(=O)[C@H](C)NP(=O)(OC[C@H]1O[C@@H](n2ccc(=O)[nH]c2=O)[C@](C)(F)[C@@H]1O)Oc1ccccc1 (stereo partly shown) and report it.
Solution: 78.8%
